Target: Cbl-B (Homo sapiens)
Construct: MSD-Based Assay for Degradation of Cbl-B in THP-1 Cells; endogenous in cells; host or cells: THP-1 (title) / Jurkat (protocol text)
Sequence (Q13191 whole entry): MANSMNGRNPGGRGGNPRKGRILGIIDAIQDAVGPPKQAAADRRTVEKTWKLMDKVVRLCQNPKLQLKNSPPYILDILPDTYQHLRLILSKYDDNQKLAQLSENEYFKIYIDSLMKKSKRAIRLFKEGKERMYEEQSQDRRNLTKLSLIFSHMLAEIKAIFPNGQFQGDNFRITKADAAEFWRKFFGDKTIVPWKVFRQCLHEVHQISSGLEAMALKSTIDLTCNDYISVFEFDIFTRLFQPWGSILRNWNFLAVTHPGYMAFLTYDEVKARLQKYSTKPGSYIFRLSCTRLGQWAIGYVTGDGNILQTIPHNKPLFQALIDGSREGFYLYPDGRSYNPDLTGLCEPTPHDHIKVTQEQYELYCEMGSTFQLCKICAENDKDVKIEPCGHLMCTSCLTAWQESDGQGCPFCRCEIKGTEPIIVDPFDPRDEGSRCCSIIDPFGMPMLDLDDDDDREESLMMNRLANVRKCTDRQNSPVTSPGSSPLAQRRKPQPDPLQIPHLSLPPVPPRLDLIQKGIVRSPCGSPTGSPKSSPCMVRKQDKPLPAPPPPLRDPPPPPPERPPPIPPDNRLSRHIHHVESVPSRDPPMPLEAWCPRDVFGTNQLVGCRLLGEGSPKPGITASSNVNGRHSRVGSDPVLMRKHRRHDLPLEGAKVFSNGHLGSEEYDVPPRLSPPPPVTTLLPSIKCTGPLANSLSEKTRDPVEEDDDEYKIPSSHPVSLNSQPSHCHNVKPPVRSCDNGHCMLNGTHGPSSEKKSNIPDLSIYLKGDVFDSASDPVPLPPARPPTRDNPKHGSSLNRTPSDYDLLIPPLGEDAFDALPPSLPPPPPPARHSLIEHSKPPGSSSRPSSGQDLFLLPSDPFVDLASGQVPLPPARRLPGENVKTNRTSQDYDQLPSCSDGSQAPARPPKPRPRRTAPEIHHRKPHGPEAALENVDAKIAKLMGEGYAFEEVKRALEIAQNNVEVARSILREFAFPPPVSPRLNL
Test: MSD-based assay for degradation of Cbl-B in THP-1 cells
Format: cell-based
Details: Cbl-B degradation, Jurkat cells seeded (heading: THP-1 cells), 24 hours incubation, MSD readout; read-out: Dmax
List of Dmax values.

Example compounds with recorded Dmax:
Cn1cnnc1[C@@H](c1cccc(-n2cc3c(C(F)(F)F)cc(CN4CCC[C@@H](OCCOCc5ccc(COCCNc6cccc7c6C(=O)N(C6CCC(=O)NC6=O)C7=O)cc5)CC4)cn3c2=O)c1)C1CCC1 (some centres unmarked) [Compound 31]    50 to 70%
Cn1cnnc1CC1(c2cccc(-n3cc4c(C(F)(F)F)cc(CN5CCC(OCc6ccc(C7CCN(c8ccc9c(c8)CN([C@@H]8CCC(=O)NC8=O)C9=O)CC7)cc6)CC5)cn4c3=O)c2)COC1 (single isomer, unassigned) [Compound 205]    30 to 50%
Cn1cnnc1[C@@H](c1cccc(-n2cc3c(C(F)(F)F)cc(CN4CCC(C(=O)N5CCC(CN6CCN(c7cc8c(cc7F)C(=O)N(C7CCC(=O)NC7=O)C8=O)CC6)CC5)CC4)cn3c2=O)c1)C1CCC1 (some centres unmarked) [Compound 30]    < 30%
Cn1cnnc1[C@@H](c1cccc(-n2cc3c(C(F)(F)F)cc(CN4CCC[C@@H](OC5CCN(C(=O)c6ccc(N7CCN(c8ccc9c(c8)CN([C@H]8CCC(=O)NC8=O)C9=O)CC7)cc6)CC5)C4)cn3c2=O)c1)C1CCC1 (single isomer, unassigned) [Compound 172]    > 70%
Cn1cnnc1[C@@H](c1cccc(-n2cc3c(C(F)(F)F)cc(CN4CCC(OCc5cccc(CN6CCN(c7ccc8c(c7)CN([C@@H]7CCC(=O)NC7=O)C8=O)CC6)c5)CC4)cn3c2=O)c1)C1CCC1 (single isomer, unassigned) [Compound 207]    < 30%

query: Need Dmax of CN(CCN(C)C(=O)c1ccc(C2CCN(c3ccc4c(c3)CN([C@H]3CCC(=O)NC3=O)C4=O)CC2)cc1)Cc1cc(C(F)(F)F)c2cn(-c3cccc([C@H](c4nncn4C)C4CCC4)c3)c(=O)n2c1 (single isomer, unassigned) [Compound 212] , thanks.
result: < 30%

query: Please give the result for CN(CC1CCN(Cc2cc(C(F)(F)F)c3cn(-c4cccc([C@H](c5nncn5C)C5CCC5)c4)c(=O)n3c2)CC1)C(=O)c1ccc(C2CCN(c3ccc4c(c3)CN([C@H]3CCC(=O)NC3=O)C4=O)CC2)cc1 (single isomer, unassigned) [Compound 200] too.
result: > 70%

query: Please give the result for Cn1cnnc1CC1(c2cccc(-n3cc4c(C(F)(F)F)cc(CNCCOCCNc5cccc6c5C(=O)N(C5CCC(=O)NC5=O)C6=O)cn4c3=O)c2)COC1 (centres unmarked) [Compound 2] too.
result: < 30%
